The measurements presented in this section are drawn from ChEMBL document CHEMBL1133733.

Molecular target: Pyruvate dehydrogenase kinase (Rattus norvegicus) (UniProt Q63065+A6IPZ9+Q64536+O54937)
Assay: In vivo percent of control lactate in 24 hr fasted rats at 100 umol/kg oral dose after 2.5 hours
Type: functional, organism-based
endpoint_label: Control (%)

Before answering, review these 2 worked examples.
structure	numeric_value
C[C@@](O)(C(=O)Nc1ccc(S(=O)(=O)NCCN2CCOCC2)cc1Cl)C(F)(F)F	71
CCOCCCNS(=O)(=O)c1ccc(NC(=O)[C@@](C)(O)C(F)(F)F)c(Cl)c1	72

[1] C[C@@](O)(C(=O)Nc1ccc(S(=O)(=O)NCCCN2CCCC2=O)cc1Cl)C(F)(F)F
[2] C[C@@](O)(C(=O)Nc1ccc(S(=O)(=O)NCCc2ccc(F)cc2)cc1Cl)C(F)(F)F
When the recorded Control values are compared, which is smaller: that of 1 or that of 2 ? Kindly give the label for the entry you pick.
1
(1: 51%, 2: 124%)
